experiment: Inhibition of MCLA chemiluminescence generated by autoxidation of linoleic acid
Could you please report measured IC50 for the items listed next?
Give bare numbers, in µM.

CC(C)(C)c1cc2c(c(C(C)(C)C)c1O)CCO2; 7.2

Parameter requested: IC50. Apply to each item below.
1. CCCCCCCCC1(CCCCCCCC)Cc2c(cc(C(C)(C)C)c(O)c2C(C)(C)C)O1
2. CC(C)CCC1(CCC(C)C)Cc2c(cc(C(C)(C)C)c(O)c2C(C)(C)C)O1
3. CCC1(CC)Cc2c(cc(C(C)(C)C)c(O)c2C(C)(C)C)O1
4. CCCCC1(CCCC)Cc2c(cc(C(C)(C)C)c(O)c2C(C)(C)C)O1
5. CCCC1(CCC)Cc2c(cc(C(C)(C)C)c(O)c2C(C)(C)C)O1
6. CC(C)(C)c1cc2c(c(C(C)(C)C)c1O)CC1(CCCCC1)O2
7. CC(C)(Sc1cc(C(C)(C)C)c(O)c(C(C)(C)C)c1)Sc1cc(C(C)(C)C)c(O)c(C(C)(C)C)c1
8. CC(C)(C)c1cc2c(c(C(C)(C)C)c1O)CC(C(C)(C)C)O2 (stereo unspecified)

1: 5.6; 2: 5.7; 3: 4.3; 4: 7.9; 5: 4; 6: 9.3; 7: 165; 8: 8.4

Attribution: ChEMBL document CHEMBL1145837
